molecular target: SHP2-C SH2; test: SH2 binding enrichment of the phosphorylated peptide, bacterial display (enrichment ratio); higher = better substrate or ligand; peptides without Tyr show the background;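 also: peptide library displayed on the E. coli surface as eCPX fusions, selected cells deep-sequenced, score is each peptide's frequency after selection divided by its frequency in the input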
measurement label: SH2 binding enrichment

[[record]]
macromolecule_sequence = "RAKLFYQEVPA [METTL11B_Y76]"
reading = 0.789

[[record]]
macromolecule_sequence = "NHRNQYQALKT [CLSPN_Y887_P892T]"
reading = 1

[[record]]
macromolecule_sequence = "TLMNAYSSRSH [KIF11_Y231]"
reading = 0.552

[[record]]
macromolecule_sequence = "PASLSYLSFEG [EXOSC3_Y143]"
reading = 1.11

[[record]]
macromolecule_sequence = "TAGFSYEKWEI [TEC_Y360]"
reading = 0.701

[[record]]
macromolecule_sequence = "CEAMEYQESKQ [BTK_Y511_L512Q]"
reading = 0.557

[[record]]
macromolecule_sequence = "VSSPKYGSDDE [TMCC2_Y473]"
reading = 0.93

[[record]]
macromolecule_sequence = "QNKEDYDGLKE [GSTO1_Y139_A140D]"
reading = 0.737

[[record]]
macromolecule_sequence = "KHGGNYVPAPE [OSCP1_Y237_K242E]"
reading = 0.614

[[record]]
macromolecule_sequence = "SGFESYGSSSF [RPA2_Y9_YF]"
reading = 0.574

[[record]]
macromolecule_sequence = "IKGNMYYENSY [EGFR_Y112_R108K]"
reading = 0.713

[[record]]
macromolecule_sequence = "RDLRTYIMPAH [PNMT_Y256]"
reading = 0.734

[[record]]
macromolecule_sequence = "IDLEKYKLLPE [DHFR_Y157]"
reading = 0.718

[[record]]
macromolecule_sequence = "FSGDCYRIQGR [DDR2_Y741_Y740C_YF]"
reading = 0.661


---

system: c-Abl (mouse); assay: phosphorylation enrichment, bacterial display (enrichment ratio); higher = better substrate or ligand; peptides without Tyr show the background
measurement label: phosphorylation enrichment

[[record]]
macromolecule_sequence = "RLLVVYPWTRR [HBB_Y36_Q40R]"
target_system = "c-Abl (mouse)"
reading = 0.577

[[record]]
macromolecule_sequence = "LFLALYTGLVH [PIGB_Y402]"
target_system = "c-Abl (mouse)"
reading = 1.38

[[record]]
macromolecule_sequence = "MTYMFYRENLR [NLRP14_Y443_V441M]"
target_system = "c-Abl (mouse)"
reading = 0.751

[[record]]
macromolecule_sequence = "RRAKGYPIFLF [ITGB2_Y125_D128Y_YF]"
target_system = "c-Abl (mouse)"
reading = 0.854

[[record]]
macromolecule_sequence = "SLHPGYNFRYA [P2RX7_Y291_Y288H]"
target_system = "c-Abl (mouse)"
reading = 0.637

[[record]]
macromolecule_sequence = "EQAERYDDMAA [YWHAG_Y20]"
target_system = "c-Abl (mouse)"
reading = 0.653

[[record]]
macromolecule_sequence = "TKAEKYVNKPK [PLCG1_Y991_A995P]"
target_system = "c-Abl (mouse)"
reading = 0.942


---

target: Hck (UniProt P08631); assay: phosphorylation enrichment, bacterial display (enrichment ratio); higher = better substrate or ligand; peptides without Tyr show the background
Sequence (P08631 whole entry, looked up): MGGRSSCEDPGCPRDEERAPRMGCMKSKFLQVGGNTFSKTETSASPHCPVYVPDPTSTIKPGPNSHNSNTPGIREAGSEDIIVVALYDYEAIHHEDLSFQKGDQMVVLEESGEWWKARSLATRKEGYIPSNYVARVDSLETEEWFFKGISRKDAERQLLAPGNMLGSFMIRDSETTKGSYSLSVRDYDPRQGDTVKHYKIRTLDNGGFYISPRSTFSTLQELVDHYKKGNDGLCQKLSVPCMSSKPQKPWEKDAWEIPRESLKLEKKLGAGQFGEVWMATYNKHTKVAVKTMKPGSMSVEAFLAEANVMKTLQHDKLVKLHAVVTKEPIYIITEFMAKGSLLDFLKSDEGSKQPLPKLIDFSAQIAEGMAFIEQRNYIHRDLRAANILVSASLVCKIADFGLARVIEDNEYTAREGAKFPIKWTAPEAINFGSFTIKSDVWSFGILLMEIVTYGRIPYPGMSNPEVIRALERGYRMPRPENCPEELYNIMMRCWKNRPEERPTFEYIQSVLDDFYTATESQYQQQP
phosphorylation enrichment overview
measurement label: phosphorylation enrichment

[[record]]
macromolecule_sequence = "DPYHVYIKNRV [KCNE3_Y95]"
measurement_label = "phosphorylation enrichment"
reading = 0.958

[[record]]
macromolecule_sequence = "DDERGYRRVRS [GIGYF2_Y268]"
measurement_label = "phosphorylation enrichment"
reading = 0.353

[[record]]
macromolecule_sequence = "TFRPPYFHRDC [HGD_Y333_N337D_YF]"
measurement_label = "phosphorylation enrichment"
reading = 0.454

[[record]]
macromolecule_sequence = "KFMVGYEMIAQ [GALT_Y339_L342I]"
measurement_label = "phosphorylation enrichment"
reading = 0.507

[[record]]
macromolecule_sequence = "SVVVPSEPPEV [TP53_Y220_Y220S]"
measurement_label = "phosphorylation enrichment"
reading = 0.484

[[record]]
macromolecule_sequence = "FGSSSSGGAGG [RPA2_Y14_Y14S_YF]"
measurement_label = "phosphorylation enrichment"
reading = 0.312

[[record]]
macromolecule_sequence = "PSGPTYRGAVP [ASAH1_Y43]"
measurement_label = "phosphorylation enrichment"
reading = 0.583

[[record]]
macromolecule_sequence = "KVVVPYEPPEV [TP53_Y220_S215K]"
measurement_label = "phosphorylation enrichment"
reading = 0.406

[[record]]
macromolecule_sequence = "AEMTGYVVTRW [MAPK13_Y182]"
measurement_label = "phosphorylation enrichment"
reading = 0.467

[[record]]
macromolecule_sequence = "PEIIAYQPFGK [PRKCG_Y529_YF]"
measurement_label = "phosphorylation enrichment"
reading = 0.798

[[record]]
macromolecule_sequence = "MHDKEYYSVHN [MET_Y1234_Y1230H]"
measurement_label = "phosphorylation enrichment"
reading = 0.459

[[record]]
macromolecule_sequence = "DVMDFYKTLRG [NR3C1_Y30]"
measurement_label = "phosphorylation enrichment"
reading = 0.434

[[record]]
macromolecule_sequence = "QQTFTYDSGIH [JUP_Y22_YF]"
measurement_label = "phosphorylation enrichment"
reading = 1.85

[[record]]
macromolecule_sequence = "PVFQVYPLLNC [GATA1_Y78]"
measurement_label = "phosphorylation enrichment"
reading = 0.654

[[record]]
macromolecule_sequence = "FVSIVYNDFGE [TSC2_Y1650_S1653F]"
measurement_label = "phosphorylation enrichment"
reading = 0.642

[[record]]
macromolecule_sequence = "LTAEVYFPSIK [C5orf64_Y60]"
measurement_label = "phosphorylation enrichment"
reading = 1.06

[[record]]
macromolecule_sequence = "NNDLCYWVPEL [IARS1_Y434]"
measurement_label = "phosphorylation enrichment"
reading = 2.13

[[record]]
macromolecule_sequence = "ADFPDCKFRPR [SOX11_Y116_Y116C_YF]"
measurement_label = "phosphorylation enrichment"
reading = 0.545

[[record]]
macromolecule_sequence = "KRGIDYILRHM [FRMD1_Y225]"
measurement_label = "phosphorylation enrichment"
reading = 0.396

[[record]]
macromolecule_sequence = "STEAIYRRFSK [SH3PXD2B_Y42_YF]"
measurement_label = "phosphorylation enrichment"
reading = 0.379

[[record]]
macromolecule_sequence = "VKMLEYRGKDV [CASP5_Y74_L75R]"
measurement_label = "phosphorylation enrichment"
reading = 0.46

[[record]]
macromolecule_sequence = "LSRDVYEEDSF [RET_Y900_YF]"
measurement_label = "phosphorylation enrichment"
reading = 0.875

[[record]]
macromolecule_sequence = "KHASTYREAAT [DEAF1_Y483]"
measurement_label = "phosphorylation enrichment"
reading = 0.344

[[record]]
macromolecule_sequence = "PEQAAYQKVVA [HBB_Y131_V127E]"
measurement_label = "phosphorylation enrichment"
reading = 0.561

[[record]]
macromolecule_sequence = "STLEVYSCHPP [IL21R_Y317]"
measurement_label = "phosphorylation enrichment"
reading = 1.27

[[record]]
macromolecule_sequence = "SSVAGYACLAF [MVD_Y131_A128V_YF]"
measurement_label = "phosphorylation enrichment"
reading = 0.556

[[record]]
macromolecule_sequence = "AQVDTYCRHNF [HLA-DRB1_Y107_A103Q_YF]"
measurement_label = "phosphorylation enrichment"
reading = 0.446

[[record]]
macromolecule_sequence = "YFWDGYMPRQY [GSS_Y270_R267W]"
measurement_label = "phosphorylation enrichment"
reading = 0.783

[[record]]
macromolecule_sequence = "CTTIHYNFMSN [TP53_Y234_C238S_YF]"
measurement_label = "phosphorylation enrichment"
reading = 0.545


---

tested on: c-Abl (mouse); experiment: phosphorylation enrichment, bacterial display (enrichment ratio); higher = better substrate or ligand; peptides without Tyr show the background
Below, each entry is listed alongside its reported phosphorylation enrichment.
measurement label: phosphorylation enrichment

[[record]]
macromolecule_sequence = "EKQARYEIVEE [CDH5_Y223_V227E]"
reading = 0.749

[[record]]
macromolecule_sequence = "SCRENYSYSEE [LEMD3_Y258_D260Y]"
reading = 0.652

[[record]]
macromolecule_sequence = "LPHVIYCRLWR [SMAD2_Y128]"
reading = 1.47

[[record]]
macromolecule_sequence = "CEETFYTMKVN [MASP2_Y401]"
reading = 0.9

[[record]]
macromolecule_sequence = "NLNGKYYKPRA [ANGPTL3_Y417_N418Y]"
reading = 0.61

[[record]]
macromolecule_sequence = "GTFEDYVEGLR [MYL6_Y89_YF]"
reading = 0.688

[[record]]
macromolecule_sequence = "GMKIVYVYVKK [DNAI2_Y5_E2K]"
reading = 0.801

[[record]]
macromolecule_sequence = "LEHCQYVTQKV [ALDOB_Y204_E207Q]"
reading = 0.727

[[record]]
macromolecule_sequence = "ALEKTYNTYRS [B4GALNT2_Y538]"
reading = 0.433

[[record]]
macromolecule_sequence = "LDVGEYCVPRG [BEX1_Y43_A40V]"
reading = 3.73

[[record]]
macromolecule_sequence = "LEGAKYVSHGA [ASS1_Y113_R108L]"
reading = 0.852

[[record]]
macromolecule_sequence = "FVSAAYVKKLD [SPTAN1_Y1020_P1017S]"
reading = 0.511

[[record]]
macromolecule_sequence = "PASWTYVRWFD [PTDSS1_Y274]"
reading = 1.04

[[record]]
macromolecule_sequence = "CTTIHKNYMCN [TP53_Y234_Y234K]"
reading = 0.603

